- subject of test: human FAAH (Homo sapiens, UniProt O00519)
- Construct: expressed in transfected cells
- Sequence (O00519 whole entry): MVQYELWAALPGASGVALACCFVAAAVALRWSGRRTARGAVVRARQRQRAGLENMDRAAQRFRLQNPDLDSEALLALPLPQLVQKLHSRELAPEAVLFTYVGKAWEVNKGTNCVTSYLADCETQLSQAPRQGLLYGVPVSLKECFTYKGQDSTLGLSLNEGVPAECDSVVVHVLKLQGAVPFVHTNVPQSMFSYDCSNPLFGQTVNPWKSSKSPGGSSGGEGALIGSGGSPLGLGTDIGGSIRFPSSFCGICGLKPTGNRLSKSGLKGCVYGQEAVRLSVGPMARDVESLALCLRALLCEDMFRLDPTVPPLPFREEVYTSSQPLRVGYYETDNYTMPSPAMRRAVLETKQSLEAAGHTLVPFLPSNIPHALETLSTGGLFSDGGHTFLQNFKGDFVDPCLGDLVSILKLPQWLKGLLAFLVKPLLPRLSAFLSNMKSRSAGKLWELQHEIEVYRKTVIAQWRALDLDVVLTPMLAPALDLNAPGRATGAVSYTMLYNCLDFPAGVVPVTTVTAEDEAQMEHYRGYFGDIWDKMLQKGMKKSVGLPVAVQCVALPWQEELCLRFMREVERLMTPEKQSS
- experiment summary: Assay Method 1: FAAH assay, hydrolysis of 3H-anandamide by homogenate of SK-N-MC cells transfected with human FAAH
- Assay type: biochemical
- details: human FAAH; T84 or transfected SK-N-MC cell homogenate; 3H-AEA tracer 80 nM; rt 1 h; pH 9; read-out: Assay 1 IC50
- Protocol: A. Transfection of Cells with Human FAAH A 10-cm tissue culture dish with a confluent monolayer of SK-N-MC cells was split 2 days (d) prior to transfection. Using sterile technique, the media was removed and the cells were detached from the dish by the addition of trypsin. One fifth of the cells were then placed onto a new 10-cm dish. […] After 10 d, dishes were analyzed for surviving colonies of cells. […]
Where a name gives a salt, the structure may show the parent alone.
Kindly apply the following: class 1 if IC50 is less than 100 nM, class 0 in every other case.

As a guide, the following entries are already answered.
molecule: O=C(O)c1cccc(-c2cnc(C(=O)CCCC3CCN(Cc4cccc(-c5ccccc5)c4)CC3)o2)n1 [Example 149, trifluoroacetic acid salt]
assigned class: class 1
--
molecule: O=C(CCCC1CCN(S(=O)(=O)c2ccc(Cl)cc2)CC1)c1ncco1 [Example 60]
assigned class: class 1
--
molecule: O=C(CCCC1CCN(Cc2cccnc2)CC1)c1ncco1 [Example 5]
assigned class: class 0
--
molecule: O=C(CCCC1CCN(Cc2cccc(Oc3ccccc3)c2)CC1)c1ncco1 [Example 2]
assigned class: class 1
--
molecule: CC(C)CCC(=O)N1CCC(CCCC(=O)c2ncco2)CC1 [Example 51]
assigned class: class 0

[Q] Answer whether the molecule CC(C)c1ccc(CN2CCC(CCCC(=O)c3ncco3)CC2)cn1 [Example 132] has IC50 strictly less than 100 nM
[A] class 1

[Q] Param item: O=C(CCCC1CCN(Cc2ccc(-c3cccs3)nc2)CC1)c1ncco1 [Example 110]
[A] class 1

[Q] Param item: O=C(CCCC1CCN(Cc2ccc(Br)c(Br)c2)CC1)c1ncco1 [Example 11]
[A] class 1

[Q] Param item: Cc1ccc(Oc2ccc(CN3CCC(CCCC(=O)c4ncco4)CC3)cn2)cc1 [Example 96]
[A] class 0

[Q] Param item: Cc1ccccc1CN1CCC(CCCC(=O)c2ncco2)CC1 [Example 80]
[A] class 0

[Q] Param item: O=C(CCCC1CCN(C(=O)Cc2ccccc2Cl)CC1)c1ncco1 [Example 42]
[A] class 0

[Q] Param item: O=C(CCCC1CCN(Cc2ccc(-c3ccccc3)c(F)c2)CC1)c1ncco1 [Example 138]
[A] class 1

[Q] Param item: O=C(O)c1cccc(-c2cnc(C(=O)CCCC3CCN(Cc4cccc(OC5CCCCC5)c4)CC3)o2)n1 [Example 150, trifluoroacetic acid salt]
[A] class 1

[Q] Param item: O=C(CCCC1CCN(C(=O)CCC2CCCCC2)CC1)c1ncco1 [Example 50]
[A] class 1

[Q] Param item: O=C(CCCC1CCN(Cc2ccc(Oc3ccccc3)nc2)CC1)c1ncco1 [Example 105]
[A] class 1

* * *

- subject of test: rat FAAH (Rattus norvegicus, UniProt P97612)
- Sequence (P97612 1-579): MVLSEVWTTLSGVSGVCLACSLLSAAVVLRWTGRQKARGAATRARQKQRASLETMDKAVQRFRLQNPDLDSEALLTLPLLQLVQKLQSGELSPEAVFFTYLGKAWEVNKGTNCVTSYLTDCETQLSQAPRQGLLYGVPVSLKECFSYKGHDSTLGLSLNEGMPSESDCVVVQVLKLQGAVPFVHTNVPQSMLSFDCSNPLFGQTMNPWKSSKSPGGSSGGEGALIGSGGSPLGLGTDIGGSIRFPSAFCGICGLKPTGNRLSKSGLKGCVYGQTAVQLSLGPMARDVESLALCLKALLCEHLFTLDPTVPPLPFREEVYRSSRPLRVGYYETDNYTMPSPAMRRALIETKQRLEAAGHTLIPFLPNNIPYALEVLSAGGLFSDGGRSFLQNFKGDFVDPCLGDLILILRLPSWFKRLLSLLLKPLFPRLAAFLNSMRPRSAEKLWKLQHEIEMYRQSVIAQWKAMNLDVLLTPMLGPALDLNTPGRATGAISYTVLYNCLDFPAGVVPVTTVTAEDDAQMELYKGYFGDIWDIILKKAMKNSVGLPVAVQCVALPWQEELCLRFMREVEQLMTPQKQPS
measurement label: IC50 (nM)
Report the figure in nM without appending any unit label.

Consider the reported IC50 for these molecules:
substance smiles: COc1ccc(CN2CCC(CCCC(=O)c3ncco3)CC2)cn1
IC50 [nM]: 5000
//
substance smiles: CCCCS(=O)(=O)N1CCC(CCCC(=O)c2ncco2)CC1
IC50 [nM]: 720
//
substance smiles: O=C(CCCC1CCN(S(=O)(=O)CCc2ccccc2)CC1)c1ncco1
IC50 [nM]: 125

[Q] Record request: IC50 value, item `CC(C)S(=O)(=O)N1CCC(CCCC(=O)c2ncco2)CC1`
[A] 3350

[Q] Param item: `CC(C)(C)CC(=O)N1CCC(CCCC(=O)c2ncco2)CC1`
[A] 320

[Q] Param item: `O=C(CCCC1CCN(Cc2cccc(Br)c2)CC1)c1ncco1`
[A] 118

Data credit: patent US20090111778A1
